Catalogue of compounds with associated inhibition at 1000 µM
target: Beta Amyloid 1–42 (Aβ42) (Homo sapiens, UniProt P05067); construct: The Beta Amyloid 1–42 (Aβ42) Ligand Screening Assay kit; purchased BioVision, Milpitas, CA; assay: Beta Amyloid 1–42 (Aβ42) inhibitor screening assay; assay type: biochemical; conditions: 10^–3 M; read-out: % β-amyloid plaque inhibition
Sequence (P05067 672-713 limits assumed): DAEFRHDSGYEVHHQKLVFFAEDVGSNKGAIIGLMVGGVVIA

Previously resolved entries follow.
- compound: "CCCN(C)CC(=O)Nc1ccc(/C=C2\\Cc3ccc(OC)cc3C2=O)cc1"
  inhibition at 1000 µM: "80.3%"
- compound: "CCCN(C)CC(=O)Nc1ccc(/C=C2\\Cc3cc(OC)ccc3C2=O)cc1"
  inhibition at 1000 µM: "82.7%"
- compound: "COc1cc(/C=C/C(=O)CC(=O)/C=C/c2ccc(O)c(OC)c2)ccc1O [curcumin, reference compound]"
  inhibition at 1000 µM: "95.9%"
- compound: "COc1cc2c(cc1OC)C(=O)/C(=C/c1ccc(NC(=O)CN(C)CCCN(C)C)cc1)C2"
  inhibition at 1000 µM: "≥ 80%"

Here is the next item to consider.
Input line: Fill in reported inhibition at 1000 µM for this entry: CCCN(C)CC(=O)Nc1ccc(/C=C2\Cc3cc(OC)c(OC)cc3C2=O)cc1
Output line: 89.6%

====

molecular target: BChE (Homo sapiens, UniProt P06276); experiment: biochemical; details: 10^–3 M
Sequence (P06276 29-602): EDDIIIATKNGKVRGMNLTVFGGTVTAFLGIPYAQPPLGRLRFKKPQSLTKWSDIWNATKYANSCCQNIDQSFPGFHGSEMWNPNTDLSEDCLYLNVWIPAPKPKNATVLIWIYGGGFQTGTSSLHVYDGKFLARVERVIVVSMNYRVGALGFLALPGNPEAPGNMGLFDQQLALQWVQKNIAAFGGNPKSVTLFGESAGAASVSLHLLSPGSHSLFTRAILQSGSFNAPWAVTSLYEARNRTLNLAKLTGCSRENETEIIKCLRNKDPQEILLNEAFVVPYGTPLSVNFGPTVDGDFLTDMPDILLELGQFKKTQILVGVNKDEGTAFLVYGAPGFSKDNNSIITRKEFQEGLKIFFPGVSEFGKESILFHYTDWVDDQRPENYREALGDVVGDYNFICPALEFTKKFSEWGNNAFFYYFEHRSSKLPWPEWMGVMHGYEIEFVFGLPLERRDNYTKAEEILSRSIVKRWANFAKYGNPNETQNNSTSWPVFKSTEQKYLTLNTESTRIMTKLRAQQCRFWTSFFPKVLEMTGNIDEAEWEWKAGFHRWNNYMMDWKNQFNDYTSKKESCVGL
parameter: inhibition at 1000 µM (%)
The figure you give is taken to be in %; do not add the unit.

Known results for compounds:
- compound: "COc1ccc2c(c1)C/C(=C\\c1ccc(NC(=O)CN(C)CCCN(C)C)cc1)C2=O [D37]"
  inhibition at 1000 µM (%): 94.2
- compound: "C#CCN(C)CC(=O)Nc1ccc(/C=C2\\Cc3cc(OC)ccc3C2=O)cc1 [D31]"
  inhibition at 1000 µM (%): 98.8
- compound: "CCN(CC)CCN(CC)CC(=O)Nc1ccc(/C=C2\\Cc3ccc(OC)cc3C2=O)cc1 [D41]"
  inhibition at 1000 µM (%): 99.1
- compound: "COc1ccc2c(c1)C(=O)/C(=C/c1ccc(NC(=O)CN(C)CCN(C)C)cc1)C2 [D35]"
  inhibition at 1000 µM (%): 90.2

Input line: Supply measured inhibition at 1000 µM of COc1ccc2c(c1)C(=O)/C(=C/c1ccc(NC(=O)CN3CCN(CCCO)CC3)cc1)C2 [D20] in your reply.
Output line: 82.6

Input line: Give recorded inhibition at 1000 µM. CCN(CC)CCN(CC)CC(=O)Nc1ccc(/C=C2\Cc3cc(OC)ccc3C2=O)cc1 [D40]
Output line: 95.1

Input line: Let me know recorded inhibition at 1000 µM for COc1ccc2c(c1)C/C(=C\c1ccc(NC(=O)CN3CCN(C)CC3)cc1)C2=O [D1] , thanks.
Output line: 94.6

Input line: Respond only with inhibition at 1000 µM recorded for COc1cc2c(cc1OC)C(=O)/C(=C/c1ccc(NC(=O)CN3CCN(CCCN(C)C)CC3)cc1)C2 [D27]
Output line: 94.8

Input line: Quick one: give measured inhibition at 1000 µM for C#CCN(C)CC(=O)Nc1ccc(/C=C2\Cc3ccc(OC)cc3C2=O)cc1 [D32]
Output line: 90.9

====

assay: Cytotoxicity test (MTT); format: cell-based; settings: NIH/3T3 mouse embryonic fibroblast cells (ATCC CRL-1658), NIH/3T3 mouse fibroblast healthy cell line
parameter: IC50
// unit must come after the numeric part

// known answers, use as guide
- smiles_str: "CCN(CC)CCN(CC)CC(=O)Nc1ccc(/C=C2\\Cc3ccc(OC)cc3C2=O)cc1"
  recorded_result: "5.89 µM"
- smiles_str: "CCCN(C)CC(=O)Nc1ccc(/C=C2\\Cc3cc(OC)c(OC)cc3C2=O)cc1"
  recorded_result: "0.601 µM"
- smiles_str: "COc1cc2c(cc1OC)C(=O)/C(=C/c1ccc(NC(=O)CN(C)CCN(C)C)cc1)C2"
  recorded_result: "3.62 µM"
- smiles_str: "CCCN(C)CC(=O)Nc1ccc(/C=C2\\Cc3ccc(OC)cc3C2=O)cc1"
  recorded_result: "73.6 µM"
- smiles_str: "COc1ccc2c(c1)C/C(=C\\c1ccc(NC(=O)CN3CCN(CCCN(C)C)CC3)cc1)C2=O"
  recorded_result: "13.8 µM"
- smiles_str: "C#CCN(C)CC(=O)Nc1ccc(/C=C2\\Cc3ccc(OC)cc3C2=O)cc1"
  recorded_result: "282 µM"

Input line: Please list IC50 recorded for the compound COc1ccc2c(c1)C(=O)/C(=C/c1ccc(NC(=O)CN3CCN(CCN(C)C)CC3)cc1)C2
Output line: 2.15 µM

Input line: Given the compound COc1ccc2c(c1)C/C(=C\c1ccc(NC(=O)CN3CCN(CCN(C)C)CC3)cc1)C2=O , write its reported IC50.
Output line: 32.5 µM

Input line: Answer with the recorded IC50 of COc1ccc2c(c1)C(=O)/C(=C/c1ccc(NC(=O)CN(C)CCN(C)C)cc1)C2 only.
Output line: 53.9 µM
